system: L1210 murine leukaemia cells; assay: In vitro cytotoxicity, Microculture Tetrazolium Assay, L1210; format: cell-based; details: L1210, 2 days incubation; read-out: IC50 (concentration of cytotoxic agent which inhibits proliferation of the treated cells by 50%)
Measured Metric: IC50 (nM)
Answers are plain numbers, in nM.

Prompt: # query: IC50 of entry COc1cc2c(c3c1c(=O)c1cc4ccccc4cc1n3C)[C@@H](OC(C)=O)[C@@H](OC(=O)C=Cc1ccccc1)C(C)(C)O2 (racemic)
Completion: 590
